Hey, just so you know, these numbers are from ChEMBL document CHEMBL1130205.

Test: The fraction of free compound available in plasma of human
Assay type: ADME, cell-free
Conditions: read-out: Funbound_plasma
Quantity Measured: fraction unbound
Provide a numeric answer; units are not to be included.

Given the molecule NC1CCC(CNC(=O)[C@@H]2CCCN2C(=O)[C@H](N)C(C2CCCCC2)C2CCCCC2)CC1 (stereo partly specified) , what is its reported fraction unbound?
0.02

---

Test: Partition coefficient (logP)
Assay type: physicochemical
Details: octanol/water
Quantity Measured: logP

May I ask what logP has been recorded for NC1CCC(CNC(=O)[C@@H]2CCCN2C(=O)[C@H](N)C(c2ccccc2)c2ccccc2)CC1 (stereo partly specified) ?
-0.539
